# target-system: human recombinant A3 adenosine receptors (Homo sapiens, UniProt P0DMS8)
# Sequence (P0DMS8 whole entry): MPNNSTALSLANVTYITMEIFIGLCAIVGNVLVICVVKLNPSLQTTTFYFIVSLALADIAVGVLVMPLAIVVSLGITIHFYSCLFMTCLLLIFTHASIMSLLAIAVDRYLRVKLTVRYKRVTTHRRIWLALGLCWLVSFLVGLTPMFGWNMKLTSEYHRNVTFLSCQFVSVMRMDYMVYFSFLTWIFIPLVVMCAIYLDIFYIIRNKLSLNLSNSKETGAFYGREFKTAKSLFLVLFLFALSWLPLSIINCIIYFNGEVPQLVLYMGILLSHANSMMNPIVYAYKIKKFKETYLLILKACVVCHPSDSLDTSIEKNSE
# assay-remarks: Human cloned A3 adenosine receptor binding assay ([3H]MRE3008-F20 displacement, CHO membranes)
# stated-conditions: radioligand binding, read-out: binding affinity at human A3 receptors (hA3)

- compound: "O=C(Nc1cccc(Cl)c1)Nc1nc2ccc(Cl)cc2c2nc(-c3ccco3)nn12 [Compound 2]"
  target-system: "human recombinant A3 adenosine receptors (Homo sapiens, UniProt P0DMS8)"
  measure-unit: "nM"
  Ki: 0.19
- compound: "COc1ccc(NC(=O)Nc2nc3ccc(Cl)cc3c3nc(-c4ccco4)nn23)cc1 [Compound 1]"
  target-system: "human recombinant A3 adenosine receptors (Homo sapiens, UniProt P0DMS8)"
  measure-unit: "nM"
  Ki: 0.14

These entries and their values trace back to patent US6358964B1.
